Test system: A549
Assay: NCI tumour cell line growth inhibition, 48 h
Counter-ions that a name gives are not always drawn. Active and inactive are the calls of the source. No stated cut-off is given here; in the data, active = GI50 up to about 1.1 µM and inactive = higher.
Assay Readout: GI50

Molecule	Assay Readout	Result
CN1C[C@H](C(=O)N[C@]2(C)O[C@@]3(O)[C@@H]4CCCN4C(=O)[C@H](Cc4ccccc4)N3C2=O)C=C2c3cccc4[nH]cc(c34)C[C@H]21 [ERGOTAMINE TARTRATE]	GI50	37.8 µM (inactive)
CCOc1ccccc1/N=N/C1C(=O)N(C(=O)CC(=O)Nc2ccccc2OC)N=C1C (centres undefined)	GI50	> 100 µM (inactive)
O=C(N/C(=C\c1cccc([N+](=O)[O-])c1)c1nc2c(O)nc(S)nc2[nH]1)c1ccccc1	GI50	> 100 µM (inactive)
CN(C(=S)Cc1ccc(Cl)c(Cl)c1)C1CCCC[C@@H]1N1CCCC1 (some centres undefined)	GI50	63.4 µM (inactive)
O=C1OC(c2ccccc2)=N/C1=C/N1CCCC1C(=O)O (centres undefined)	GI50	> 100 µM (inactive)
CO[C@@H]1C=C[C@@]23c4cc5c(cc4CN(C[C@@H]2O)[C@H]3C1)OCO5 [(+)-HAEMANTHAMINE]	GI50	24 µM (inactive)
CC(=O)c1ccc(N2CCN(C3=C(Cl)C(=O)c4c(O)ccc(O)c4C3=O)CC2)cc1	GI50	17.5 µM (inactive)
Cc1ccc(S(=O)(=O)OCC/C(=C\[Si](C)(C)C)c2ccccc2)cc1	GI50	> 100 µM (inactive)
COc1cc(C2C(Cl)C(=O)N2NC(=O)c2ccc(NC(C)=O)cc2OC)ccc1O (centres undefined)	GI50	32.1 µM (inactive)
